Data origin, for the record: patent US20080261994A1

Here, each record is paired with measured pIC50 data.
- measurementTarget: aggrecanase-1 (Homo sapiens)
- Sequence (O75173 213-837): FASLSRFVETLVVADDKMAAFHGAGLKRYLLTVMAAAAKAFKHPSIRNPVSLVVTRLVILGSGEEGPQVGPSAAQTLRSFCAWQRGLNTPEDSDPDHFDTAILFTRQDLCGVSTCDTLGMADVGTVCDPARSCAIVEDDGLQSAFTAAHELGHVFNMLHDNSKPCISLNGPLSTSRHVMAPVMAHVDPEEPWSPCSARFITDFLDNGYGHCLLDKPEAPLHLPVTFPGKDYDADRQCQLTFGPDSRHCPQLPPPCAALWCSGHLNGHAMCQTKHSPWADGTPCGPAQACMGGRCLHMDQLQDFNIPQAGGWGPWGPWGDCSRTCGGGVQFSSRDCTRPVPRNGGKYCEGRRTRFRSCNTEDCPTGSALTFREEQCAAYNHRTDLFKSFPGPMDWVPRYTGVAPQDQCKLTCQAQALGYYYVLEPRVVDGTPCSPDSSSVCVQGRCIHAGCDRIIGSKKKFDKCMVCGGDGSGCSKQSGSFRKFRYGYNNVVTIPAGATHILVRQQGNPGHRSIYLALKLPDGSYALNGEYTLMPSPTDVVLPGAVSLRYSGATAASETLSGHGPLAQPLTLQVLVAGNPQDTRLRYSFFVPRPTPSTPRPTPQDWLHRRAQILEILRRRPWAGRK
- assaySummary: Aggrecanase-1 inhibitory action (Particle Assay, GAG release from aggrecan-containing polyacrylamide particles)
- Assay type: biochemical
- runConditions: aggrecanase-1 inhibitory action; read-out: IC50 AG1 (Experimental Example 1)
pIC50: −log10 of the molar value.

[[record]]
molecule = "O=C(O)C1(NS(=O)(=O)c2ccc(-c3ccc(Cl)cc3)s2)CC1C1CCCC1 (stereo not drawn) [Example 2-61]"
measurementtarget = "aggrecanase-1 (Homo sapiens)"
resultvalue = "> 6.00"

[[record]]
molecule = "O=C(Cc1cccc(C2CC2(NS(=O)(=O)c2ccc(-c3cc(C(F)(F)F)on3)s2)C(=O)O)c1)N1CCOCC1 (stereo not drawn) [Example 2-220]"
measurementtarget = "aggrecanase-1 (Homo sapiens)"
resultvalue = "> 7.00"

[[record]]
molecule = "O=C(O)C1(NS(=O)(=O)c2cccs2)CC1c1ccccc1 (stereo not drawn) [Example 2-83]"
measurementtarget = "aggrecanase-1 (Homo sapiens)"
resultvalue = "≤ 5.00"


**Q:** Fill in: pIC50 of O=C(O)C1(NS(=O)(=O)c2ccc(-c3ccc(Cl)cc3)s2)CC1c1ccc(OCc2ccccc2)cc1 (stereo not drawn) [Example 2-225] is ___
**A:** ≤ 6.00

**Q:** Same lookup for O=C(O)C1(NS(=O)(=O)c2ccc(-c3ccc(Cl)cc3)s2)CC1c1ccc(N2CCOCC2)cc1 (stereo not drawn) [Example 2-245] , please.
**A:** ≤ 6.00

**Q:** Next molecule up: O=C(O)[C@@]1(NS(=O)(=O)c2ccc(-c3ccc(Cl)cc3)s2)C[C@H]1c1cccc(Br)c1 [Example 2-150]
**A:** > 6.00

----------
- measurementTarget: MMP-1 (Homo sapiens)
- Sequence (P03956 100-469, species assumed): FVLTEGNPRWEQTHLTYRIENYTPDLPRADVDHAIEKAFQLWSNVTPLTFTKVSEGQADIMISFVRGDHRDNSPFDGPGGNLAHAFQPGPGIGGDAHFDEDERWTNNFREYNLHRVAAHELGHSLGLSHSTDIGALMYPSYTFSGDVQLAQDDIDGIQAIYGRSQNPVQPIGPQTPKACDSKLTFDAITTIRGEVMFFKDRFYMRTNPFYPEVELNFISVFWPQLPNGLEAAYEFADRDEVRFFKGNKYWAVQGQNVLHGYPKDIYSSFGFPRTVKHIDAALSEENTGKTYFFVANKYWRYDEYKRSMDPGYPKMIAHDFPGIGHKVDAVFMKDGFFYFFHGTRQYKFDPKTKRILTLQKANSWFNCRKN
- assaySummary: MMP-1 inhibitory action (Type I collagen Activity Measurement kit, FITC-labeled collagen type I)
- Assay type: biochemical
- runConditions: MMP-1 inhibitory action, FITC-labeled collagen type I, 37° C. for 3 hr; read-out: IC50 MMP1 (Experimental Example 2)
pIC50: −log10 of the molar value.
testReadout: pIC50

Consider the worked cases shown below.
[[record]]
molecule = "CC(F)(F)c1cc(-c2ccc(S(=O)(=O)N[C@@]3(C(=O)O)C[C@]3(C)c3ccccc3)s2)no1 [Example 2-107]"
testreadout = "pIC50"
resultvalue = "> 6.00"

[[record]]
molecule = "O=C(O)C1(NS(=O)(=O)c2ccc(-c3ccc(Cl)cc3)s2)CC1c1ccccc1CN1CCOCC1 (stereo not drawn) [Example 2-91]"
testreadout = "pIC50"
resultvalue = "≤ 5.00"

[[record]]
molecule = "CN(C)C(=O)CCc1ccccc1C1CC1(NS(=O)(=O)c1ccc(-c2cc(C(F)(F)F)on2)s1)C(=O)O (stereo not drawn) [Example 2-231]"
testreadout = "pIC50"
resultvalue = "≤ 6.00"

[[record]]
molecule = "O=C(O)[C@]1(NS(=O)(=O)c2ccc(-c3ccc(Cl)cc3Cl)s2)C[C@@H]1c1ccccc1 [Example 1-125]"
testreadout = "pIC50"
resultvalue = "≤ 5.00"

[[record]]
molecule = "O=C(O)[C@]1(NS(=O)(=O)c2ccc(-c3cc(CF)sn3)s2)C[C@@H]1c1ccccc1 [Example 2-120]"
testreadout = "pIC50"
resultvalue = "> 6.00"

[[record]]
molecule = "CC(=O)OCCCC1(c2ccccc2)CC1(NS(=O)(=O)c1ccc(-c2cc(C(F)(F)F)on2)s1)C(=O)O (stereo not drawn) [Example 2-264]"
testreadout = "pIC50"
resultvalue = "≤ 6.00"


**Q:** # pIC50 lookup, item O=C(O)C1(NS(=O)(=O)N2CCC(Oc3ccc(C(F)(F)F)cc3)CC2)CC1c1ccccc1 (stereo not drawn) [Example 2-144]
**A:** ≤ 5.00

**Q:** Try this molecule next: O=C(O)C1(NS(=O)(=O)c2ccc(-c3ccc(Cl)cc3)s2)CC1c1cccc(OCCO)c1 (stereo not drawn) [Example 1-86]
**A:** ≤ 6.00

----------
- measurementTarget: Recombinant Human MMP-13 (Homo sapiens)
- Construct: purchased R&D systems 511-MM
- assaySummary: MMP-13 inhibitory activity (MMP-13 specific fluorescent substrate with quencher)
- Assay type: biochemical
- runConditions: Recombinant Human MMP-13, fluorescent substrate, 25° C. for 1 h; read-out: IC50 MMP13 (Experimental Example 3)
The following compounds are listed with their measured IC50 values.

Observe how each entry below is paired with its result.
[[record]]
compound = "CN(C)C(=O)c1ccccc1C1CC1(NS(=O)(=O)c1ccc(-c2ccc(Cl)cc2)s1)C(=O)O (stereo not shown)"
measurementtarget = "Recombinant Human MMP-13 (Homo sapiens)"
testreadout = "IC50"
resultvalue = "< 1000 nM"

[[record]]
compound = "O=C(O)C1(NS(=O)(=O)c2ccc(-c3cc(C(F)(F)F)on3)s2)CC1c1ccccc1CCCO (stereo not shown)"
measurementtarget = "Recombinant Human MMP-13 (Homo sapiens)"
testreadout = "IC50"
resultvalue = "< 1000 nM"


**Q:** // IC50 lookup, key: O=C(O)C1(NS(=O)(=O)c2ccc(-c3ccc(Cl)cc3)s2)CC1(CCO)c1ccccc1 (stereo not shown)
**A:** < 1000 nM

**Q:** Try O=C(O)C1(NS(=O)(=O)c2ccc(-c3ccc(Cl)cc3)s2)CC1c1cccc([N+](=O)[O-])c1 (stereo not shown) next.
**A:** < 1000 nM

**Q:** // same read-out, input: O=C(O)C1(NS(=O)(=O)c2ccc(-c3ccc(Cl)cc3)s2)CC1c1cccc(OCc2ccccn2)c1 (stereo not shown)
**A:** < 100 nM

**Q:** Next up: O=C(O)C1(NS(=O)(=O)c2ccc(-c3ccc(Cl)cc3)s2)CC1(CCCO)c1ccccc1 (stereo not shown)
**A:** < 1000 nM

**Q:** Then what about the compound O=C(O)C1(NS(=O)(=O)c2ccc(S(=O)(=O)c3ccccc3)s2)CC1c1ccccc1 (stereo not shown) ?
**A:** ≥ 10000 nM

----------
- measurementTarget: Recombinant Human MMP-13 (Homo sapiens, UniProt P45452)
- Construct: purchased R&D systems 511-MM
- assaySummary: MMP-13 inhibitory activity (MMP-13 specific fluorescent substrate with quencher)
- Format: biochemical
- runConditions: Experimental Example 3; read-out: IC50 MMP13
- Procedure: Inhibitory activity of tested compounds on MMP-13 was measured using MMP-13 specific fluorescent substrate with quencher. The enzyme and substrate were diluted with Tris-HCl buffer, and test compounds were diluted with dimethyl sulfoxide (DMSO). Test compounds and the enzyme (Recombinant Human MMP-13: R&D systems, 511-MM) were added into 96-well plate. The reaction was initiated by adding synthetic substrate (7-MCA-Pro-CHA-Gly-NVal-His-Ala-DPA: enzyme systems products, Met-06) into the plate. […]
pIC50: −log10 of the molar value.
testReadout: pIC50

Reference set (3 entries):
[[record]]
compound = "CC1[C@H](c2ccccc2)[C@]1(NS(=O)(=O)N1CCC(OCc2cc(Cl)ccc2Cl)C1)C(=O)O (stereo partly drawn)"
resultvalue = "≤ 6.00"

[[record]]
compound = "C[C@]1(c2ccccc2)C[C@@]1(NS(=O)(=O)c1ccc(-c2cccc(C(F)(F)CO)c2)s1)C(=O)O"
resultvalue = "≤ 6.00"

[[record]]
compound = "CC1(c2ccc(F)cc2)CC1(NS(=O)(=O)c1ccc(-c2cc(C(F)(F)F)on2)s1)C(=O)O (stereo not drawn) [Example 2-340]"
resultvalue = "≤ 6.00"


Would you kindly look at the next entry?
**Q:** Looking for the measured pIC50 of CC1[C@H](c2ccccc2)[C@]1(NS(=O)(=O)N1CCC(OCc2ccc(Cl)cc2)C1)C(=O)O (stereo partly drawn) , can you help?
**A:** ≤ 6.00
